Experiment: Metabolism in human liver S9 fraction
Type: in vitro ADME
Details: human, liver S9 fraction, T1/2, +NADPH+UDPGA, 1μM
Recorded metric: half-life at 1 µM (min)
Answers are plain numbers, in min.

Exam item: Give recorded half-life at 1 µM. "Cc1ccc2c(c1)c1c(n2CCc2ccccc2)CCN(C)C1"
Marked response: 26.2

* * *

Assay: Pharmacokinetics in Wistar rats, IV/IP/PO
Type: in vivo
Details: Wistar, rat, plasma, iv, 5 mg/kg
Recorded metric: Cmax (ng/mL)
Give bare numbers, in ng/mL.

Exam item: Quote Cmax reported for "Cc1ccc2c(c1)c1c(n2CCc2ccccc2)CCN(C)C1" please.
Marked response: 847

* * *

Experiment: Pharmacokinetics in Rhesus monkeys
Type: in vivo
Settings: rhesus monkey, in vivo, po, 10 mg/kg, AUC0 ⟶t, monkey 35189, PO 10 mg/kg
Recorded metric: AUC (ng·h/mL)
Numbers only, in ng·h/mL.

Exam item: Tell me AUC reported for "Cc1ccc2c(c1)c1c(n2CCc2ccccc2)CCN(C)C1"
Marked response: 398

* * *

Experiment: Pharmacokinetics in Rhesus monkeys
Type: in vivo
Conditions: rhesus monkey, in vivo, iv, 2 mg/kg, Cmax, monkey 35188, IV 2 mg/kg
Recorded metric: Cmax (ng/mL)
One number for each entry, in ng/mL.

Exam item: Output measured Cmax for this item: "Cc1ccc2c(c1)c1c(n2CCc2ccccc2)CCN(C)C1"
Marked response: 345

* * *

Assay: Pharmacokinetics in Rhesus monkeys
Format: in vivo
Conditions: rhesus monkey, in vivo, iv, 2 mg/kg, T1/2, monkey 35188, IV 2 mg/kg
Recorded metric: half-life (h)
One number for each entry, in h.

Exam item: Determine from records and report half-life for Cc1ccc2c(c1)c1c(n2CCc2ccccc2)CCN(C)C1 [AVN-101]
Marked response: 2.7

* * *

Assay: Pharmacokinetics in Wistar rats, IV/IP/PO
Type: in vivo
Conditions: Wistar, rat, plasma, po, 5 mg/kg
Recorded metric: k el (s⁻¹)
One number for each entry, in s⁻¹.

Exam item: Tell me k el reported for "Cc1ccc2c(c1)c1c(n2CCc2ccccc2)CCN(C)C1"
Marked response: 9.83e-05

* * *

Molecular target: histamine H1 receptor (Homo sapiens)
Sequence (P35367 whole entry, species assumed): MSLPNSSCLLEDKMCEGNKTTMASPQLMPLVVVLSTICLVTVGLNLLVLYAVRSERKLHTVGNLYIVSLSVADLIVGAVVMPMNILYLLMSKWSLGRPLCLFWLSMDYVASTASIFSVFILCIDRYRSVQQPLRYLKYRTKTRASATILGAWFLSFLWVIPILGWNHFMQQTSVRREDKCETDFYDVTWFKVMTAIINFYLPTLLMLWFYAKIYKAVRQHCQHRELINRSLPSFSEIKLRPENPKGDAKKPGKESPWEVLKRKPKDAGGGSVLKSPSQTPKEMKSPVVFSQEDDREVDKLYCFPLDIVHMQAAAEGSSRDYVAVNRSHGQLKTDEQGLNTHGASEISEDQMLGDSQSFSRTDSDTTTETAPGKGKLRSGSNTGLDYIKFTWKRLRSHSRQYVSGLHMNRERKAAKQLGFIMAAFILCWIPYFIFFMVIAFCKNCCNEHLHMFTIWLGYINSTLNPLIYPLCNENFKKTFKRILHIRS
Experiment: Radioligand binding competition, histamine H1
pKi: −log10 of the molar value.
Recorded metric: pKi

Exam item: Look up pKi of Cc1ccc2c(c1)c1c(n2CC(O)c2ccccc2)CCN(C)C1 (stereo not shown) and report it.
Marked response: ~7.32

* * *

Target: hNav1.5 (Homo sapiens, UniProt Q14524)
Sequence (Q14524 whole entry): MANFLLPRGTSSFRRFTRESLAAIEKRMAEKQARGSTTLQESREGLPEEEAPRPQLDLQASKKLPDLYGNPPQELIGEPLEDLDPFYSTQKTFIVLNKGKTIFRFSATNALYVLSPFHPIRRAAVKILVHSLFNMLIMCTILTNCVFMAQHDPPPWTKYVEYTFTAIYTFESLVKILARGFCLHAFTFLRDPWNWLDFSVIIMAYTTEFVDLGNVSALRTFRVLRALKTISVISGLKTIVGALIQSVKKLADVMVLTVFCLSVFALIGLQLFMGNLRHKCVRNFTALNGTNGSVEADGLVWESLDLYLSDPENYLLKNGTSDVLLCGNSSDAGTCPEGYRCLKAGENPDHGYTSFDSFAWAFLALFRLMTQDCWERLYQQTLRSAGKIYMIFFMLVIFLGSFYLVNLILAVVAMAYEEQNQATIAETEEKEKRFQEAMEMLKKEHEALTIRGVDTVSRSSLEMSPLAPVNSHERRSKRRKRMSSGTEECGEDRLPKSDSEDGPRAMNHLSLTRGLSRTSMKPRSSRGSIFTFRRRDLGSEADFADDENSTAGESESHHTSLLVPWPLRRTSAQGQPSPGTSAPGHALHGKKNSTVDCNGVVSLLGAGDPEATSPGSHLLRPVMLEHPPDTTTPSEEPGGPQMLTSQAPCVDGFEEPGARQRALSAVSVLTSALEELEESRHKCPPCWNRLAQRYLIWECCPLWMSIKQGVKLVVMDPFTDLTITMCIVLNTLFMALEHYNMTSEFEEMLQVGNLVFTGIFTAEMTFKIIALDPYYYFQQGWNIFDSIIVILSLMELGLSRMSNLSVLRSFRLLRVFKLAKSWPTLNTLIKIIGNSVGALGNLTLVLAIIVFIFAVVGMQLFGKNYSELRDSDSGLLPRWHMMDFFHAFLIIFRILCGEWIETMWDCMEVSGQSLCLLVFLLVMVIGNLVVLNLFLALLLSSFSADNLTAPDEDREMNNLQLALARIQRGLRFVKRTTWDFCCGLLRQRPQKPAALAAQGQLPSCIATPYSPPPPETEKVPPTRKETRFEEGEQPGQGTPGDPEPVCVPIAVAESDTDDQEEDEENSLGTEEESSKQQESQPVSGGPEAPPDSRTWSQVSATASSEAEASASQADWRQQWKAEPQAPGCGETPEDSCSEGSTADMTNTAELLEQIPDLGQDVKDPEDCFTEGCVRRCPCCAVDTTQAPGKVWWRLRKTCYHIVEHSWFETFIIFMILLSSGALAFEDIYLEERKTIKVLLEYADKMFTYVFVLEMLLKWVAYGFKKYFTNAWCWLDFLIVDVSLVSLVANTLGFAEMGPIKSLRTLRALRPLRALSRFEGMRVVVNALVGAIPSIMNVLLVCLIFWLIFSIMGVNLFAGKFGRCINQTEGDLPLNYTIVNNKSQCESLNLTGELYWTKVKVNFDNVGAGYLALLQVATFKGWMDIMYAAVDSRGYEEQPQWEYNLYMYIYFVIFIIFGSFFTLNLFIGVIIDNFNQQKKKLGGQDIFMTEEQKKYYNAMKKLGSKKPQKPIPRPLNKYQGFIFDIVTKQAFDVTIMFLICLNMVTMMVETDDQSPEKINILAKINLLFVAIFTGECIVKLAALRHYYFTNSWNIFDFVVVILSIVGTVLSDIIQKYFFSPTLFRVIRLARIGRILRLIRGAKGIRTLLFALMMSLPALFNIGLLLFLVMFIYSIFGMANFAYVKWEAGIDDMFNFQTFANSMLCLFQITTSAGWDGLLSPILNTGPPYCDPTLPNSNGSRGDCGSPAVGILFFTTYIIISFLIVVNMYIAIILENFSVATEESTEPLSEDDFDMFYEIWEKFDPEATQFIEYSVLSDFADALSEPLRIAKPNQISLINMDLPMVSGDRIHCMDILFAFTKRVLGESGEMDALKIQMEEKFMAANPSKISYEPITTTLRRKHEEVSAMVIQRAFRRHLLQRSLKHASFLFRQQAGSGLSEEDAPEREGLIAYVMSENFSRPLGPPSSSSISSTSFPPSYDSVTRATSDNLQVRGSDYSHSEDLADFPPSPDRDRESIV
Test: Cardiac channel inhibition, hNav1.5
Recorded metric: IC50 (nM)
Numbers only, in nM.

Exam item: Please supply the value of reported IC50 for the item "Cc1ccc2c(c1)c1c(n2CCc2ccccc2)CCN(C)C1"
Marked response: 2400

* * *

Biological target: 5-HT2A receptor (Homo sapiens, UniProt P28223)
Sequence (P28223 whole entry): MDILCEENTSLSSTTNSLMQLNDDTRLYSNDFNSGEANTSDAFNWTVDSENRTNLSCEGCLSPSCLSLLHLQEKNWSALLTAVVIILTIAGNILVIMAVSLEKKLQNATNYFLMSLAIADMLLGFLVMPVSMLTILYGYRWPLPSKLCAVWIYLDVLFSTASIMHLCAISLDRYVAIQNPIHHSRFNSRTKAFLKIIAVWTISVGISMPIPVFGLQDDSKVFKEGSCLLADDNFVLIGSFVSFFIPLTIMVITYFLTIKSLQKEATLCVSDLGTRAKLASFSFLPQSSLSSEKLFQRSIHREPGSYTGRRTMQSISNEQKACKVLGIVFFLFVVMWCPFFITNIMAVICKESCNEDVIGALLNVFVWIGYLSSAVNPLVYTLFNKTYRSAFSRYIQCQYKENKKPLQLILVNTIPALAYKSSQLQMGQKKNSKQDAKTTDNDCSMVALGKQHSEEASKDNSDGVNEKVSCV
Assay: Radioligand binding competition, 5-HT2A
Recorded metric: Ki

Exam item: Name the recorded Ki of the item "Cc1ccc2c(c1)c1c(n2CCc2ccccc2)CCN(C)C1" in your answer.
Marked response: 1.2 to 2 nM

* * *

Assay: Pharmacokinetics in Rhesus monkeys
Assay type: in vivo
Settings: rhesus monkey, in vivo, po, 10 mg/kg, AUC0 ⟶t, Mean, PO 10 mg/kg
Recorded metric: AUC (ng·h/mL)
One number for each entry, in ng·h/mL.

Exam item: In one line, give reported AUC of the entry Cc1ccc2c(c1)c1c(n2CCc2ccccc2)CCN(C)C1 [AVN-101] .
Marked response: 360
